Recorded protectant activity against corn rust in vivo, one value per entry.
system: corn rust; assay: Protectant activity in vivo (whole plant) against corn rust; conditions: dose 400 mg/L
experimental.endpoint: protectant activity against corn rust in vivo

                                    molecule  endpoint_value
 0  N#Cc1c(Cl)c(Cl)c(Nc2c(Cl)cc([N+](=O)[O-])cc2Cl)c(C#N)c1Cl            100%
 1  N#Cc1c(Cl)c(Cl)c(Nc2c(Cl)c(Cl)c(C#N)c(Cl)c2C#N)c(C#N)c1Cl            100%
 2  N#Cc1c(Cl)c(Cl)c(C#N)c(Nc2c(F)cc([N+](=O)[O-])cc2Cl)c1Cl             80%
 3  N#Cc1c(Cl)c(Cl)c(Nc2c(Cl)cc([N+](=O)[O-])cc2Br)c(Cl)c1C#N            100%
 4  N#Cc1c(Cl)c(Cl)c(C#N)c(Nc2c(Cl)cc([N+](=O)[O-])cc2Br)c1Cl            100%
 5  N#Cc1c(Cl)c(Cl)c(C#N)c(Nc2ccc(Cl)cc2[N+](=O)[O-])c1Cl            100%
 6  N#Cc1cc(C#N)c(Cl)c(Nc2c(Cl)c(Cl)c(C#N)c(C#N)c2Cl)c1            100%
 7  N#Cc1c(Cl)c(Cl)c(Nc2cc(C(F)(F)F)ccc2Cl)c(Cl)c1C#N             80%
 8  N#Cc1c(Cl)c(Cl)c(C#N)c(Nc2c(Cl)cc(C(F)(F)F)cc2Cl)c1Cl            100%
 9  COC(=O)c1cc(Cl)c(Nc2c(Cl)c(Cl)c(C#N)c(Cl)c2C#N)c(Cl)c1            100%
10  N#Cc1c(Cl)c(Cl)c(Nc2c(Cl)cc([N+](=O)[O-])cc2Br)c(C#N)c1Cl            100%
11  N#Cc1c(F)c(F)c(Nc2ccc(C(F)(F)F)cc2Cl)c(C#N)c1F            100%
12  N#Cc1c(Cl)c(Cl)c(C#N)c(Nc2ccc(Cl)c(C(F)(F)F)c2)c1Cl            100%
13  N#Cc1c(F)c(F)c(C#N)c(Nc2c(Cl)cncc2Cl)c1F            100%
14  N#Cc1c(F)c(F)c(C#N)c(Nc2c(Cl)cc([N+](=O)[O-])cc2Br)c1F            100%
15  N#Cc1c(Cl)c(Cl)c(C#N)c(Nc2c(Br)cc([N+](=O)[O-])cc2Br)c1Cl            100%
16  N#Cc1c(Cl)c(Cl)c(Nc2nc(Cl)c(Cl)c(Cl)c2Cl)c(C#N)c1Cl [Compound B-128b]            100%
17  N#Cc1c(Cl)c(Cl)c(Nc2cc(Cl)c(C(F)(F)F)cc2Cl)c(C#N)c1Cl            100%
18  N#Cc1c(Cl)c(Cl)c(Nc2ccc(F)cc2F)c(C#N)c1Cl            100%
19  COc1c(Cl)c(Nc2c(Cl)cc([N+](=O)[O-])cc2Cl)c(C#N)c(Cl)c1C#N            100%
20  N#Cc1c(F)c(F)c(C#N)c(Nc2ccc(Cl)cc2[N+](=O)[O-])c1F             80%
21  N#Cc1c(F)c(F)c(C#N)c(Nc2c(Cl)cc(C(F)(F)F)cc2Cl)c1F            100%
22    Cc1ccccc1Nc1c(Cl)c(Cl)c(C#N)c(Cl)c1C#N            100%
23  N#Cc1c(Cl)c(Cl)c(Nc2ccc([N+](=O)[O-])cc2Cl)c(Cl)c1C#N            100%
24  CCN(CC)c1c(Cl)c(Nc2ccccc2[N+](=O)[O-])c(C#N)c(Cl)c1C#N            100%
25  N#Cc1cc([N+](=O)[O-])ccc1Nc1c(Cl)c(Cl)c(C#N)c(Cl)c1C#N            100%
26  Cc1cc([N+](=O)[O-])cc(Cl)c1Nc1c(Cl)c(Cl)c(C#N)c(Cl)c1C#N            100%
27  N#Cc1c(F)c(F)c(Nc2c(Cl)cc(C(F)(F)F)cc2Cl)c(C#N)c1F            100%
28  N#Cc1cc(C#N)c(Nc2c(Cl)c(C#N)c(Cl)c(Cl)c2C#N)nc1Cl            100%
29  N#Cc1c(Cl)c(Cl)c(Nc2ccc(Cl)cc2[N+](=O)[O-])c(Cl)c1C#N             80%
30  N#Cc1c(Cl)c(Cl)c(Nc2c(Br)cc([N+](=O)[O-])cc2Br)c(C#N)c1Cl            100%
31  N#Cc1c(Cl)c(Cl)c(Nc2c(F)cc([N+](=O)[O-])cc2F)c(Cl)c1C#N            100%
32  CN(C)c1c(Cl)c(Nc2c(Cl)cc([N+](=O)[O-])cc2Cl)c(C#N)c(Cl)c1C#N            100%
33  N#Cc1c(Cl)c(Cl)c(Nc2cc(Cl)cnc2Cl)c(Cl)c1C#N             80%
34  N#Cc1c(Cl)c(Cl)c(C#N)c(Nc2cc([N+](=O)[O-])ccc2Cl)c1Cl             80%
